method_description: NCI Yeast Anticancer Drug Screen. Data for the mec2-1 strain (AID 157)
condition_label: S. cerevisiae mec2-1 strain, at 1.2 µM, stronger effect = higher value
Description: Growth inhibition of yeast strains with defined genetic alterations is measured as a screen for potential anti-cancer activity. Selected strains with alterations in DNA damage repair or cell cycle control were exposed to compounds and growth inhibition was measured relative to vehicle treated controls. The strain used in this assay is mec2-1
About 79,000 compounds went through this panel and 15% of them were active in at least one assay; those are over-represented in the sample as a whole.
This listing pairs compounds with measured growth inhibition.
Unit % implied. Number only.

Use these answered entries as a reference point.
>>> readout_value("Cc1ccc2[nH]c3c(C)c4cc[n+](C)cc4c(C)c3c2c1")
-2
>>> readout_value("COC(=O)c1ccc(NCC2=CC(=O)C=CC2=O)cc1O")
-2
>>> readout_value("CCCCCCCCCCC1CCC(=O)O1 (stereo unspecified)")
-1
>>> readout_value("CSC(=S)N/N=C(\\C)c1cccc(C)n1")
-6
>>> readout_value("O=[N+]([O-])c1cccc2nccc(NCCCO)c12")
-20

Recall and state the measured growth inhibition for CCCCCCCCCCCCCCCCCCOCC(O)COP(=O)(O)OCC1OC(n2cc(F)c(=O)[nH]c2=O)CC1O (stereo unspecified) . 4

State its growth inhibition for this compound: CCNc1nnc(CSc2nc(-c3ccccc3)c(-c3ccccc3)[nH]2)s1 8

State its growth inhibition: CCC#CCCCOC(=O)c1cc([N+](=O)[O-])cc([N+](=O)[O-])c1 -6

Specify measured growth inhibition for O=C1C=CC(=Nc2ccc3c(c2)Cc2cc(NC(=O)C(F)(F)F)ccc2-3)O1 . 5

Specify growth inhibition for Cc1ccc(C2C(Cl)C(=O)N2n2cnc3ccccc3c2=O)cc1 (stereo unspecified) and stop. -6

Give me measured growth inhibition, please, for this compound: O=C1C=CC(=C(c2ccccc2)c2ccccc2)c2ccccc21 0

====

method_description: NCI Yeast Anticancer Drug Screen. Data for the mgt1 strain (AID 153)
condition_label: S. cerevisiae mgt1 mutant growth inhibition; at 3.7 µM
The panel holds about 79,000 compounds, 15% with a hit somewhere; the sample as a whole holds those more often. The source made the active and inactive calls. No stated cut-off is given here; in the data, active means growth inhibition above about 70%; inactive means the rest.
# output must be one of true (active), false (inactive)

Below, 4 molecules whose answers are already recorded.
>>> label("COc1cc(C(=O)/C=C/c2ccccc2O)ccc1O")
"true"
>>> label("C[Si](C)(C)CNC(=O)OCc1ccccc1")
"false"
>>> label("Cc1ccc(-c2ccc(Nc3c4ccccc4nc4ccccc34)cc2)cn1")
"false"
>>> label("COC1C=COC2(C)Oc3c(C)c(O)c4c(c3C2=O)/C(=N/C2CCC(O)OC2C)C=C(NC(=O)/C(C)=C\\C(=O)C2CC2C(O)C(C)C(O)C(C)C(OC(C)=O)C1C)C4=O (stereo not given)")
"false"

Now look at this entry.
// outcome(item) with item = C=CC(C)(O)CCC1C(=C)C(O)CC2C(C)(C)CCCC12C (stereo not given) false

====

method_description: NCI Yeast Anticancer Drug Screen. Data for the rad52 strain (AID 147);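 also: 0% = growth of vehicle-treated control cultures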
condition_label: S. cerevisiae rad52 mutant growth inhibition; at 3.7 µM; stronger effect = higher value
About 79,000 compounds went through this panel and 15% of them were active in at least one assay; those are over-represented in the sample as a whole.
In this section we review reported growth inhibition values for a set of molecules.
Quick note: give the figure in %, leave out the unit.

>>> readout_value("NNc1c(F)c(F)cc(F)c1F")
-19
>>> readout_value("N#Cc1ccc(C2NN=CC23C(=O)c2ccccc2OC3c2ccccc2)cc1 (configuration not stated)")
5
>>> readout_value("CCCCCCc1cc(C(=O)OC/C(C)=N/NC(N)=O)c2ccccc2n1")
-1
>>> readout_value("COc1cc2ccc(/C=C\\[N+](=O)[O-])cc2cc1OC")
13
>>> readout_value("Cc1nc(-[n+]2nc(-c3ccncc3)nn2-c2ccccc2)sc1C")
-2

// fetch growth inhibition given entry [N-]=N[N+]#I1OC(C(F)(F)F)(C(F)(F)F)c2ccccc21 82

Please give the documented growth inhibition of Cc1ccc(N)c(S)c1 -52

Give the reported growth inhibition for this molecule. CC1(C)[C@@H]2CC[C@]1(C)[C@H](OC(=O)CSC#N)C2 3

Item Brc1ccc(-c2cc3c(cc2C2SCCS2)OCO3)cc1 : provide growth inhibition -21

Please list growth inhibition recorded for the molecule c1ccc2c(c1)sc1cc3ccncc3cc12 7

Hello, please tell me recorded growth inhibition for this one: CN(Cc1cnc2nc(N)nc(N)c2n1)c1ccc(C(=O)N[C@@H](CCC(=O)O)C(=O)O)cc1 -1

Dear colleague, please send me the reported growth inhibition for CCCc1cc(C(=O)OCC)cc(CCC)c1O when you can. -8
